Data provenance: the array DNA melting data of Ke et al. (doi:10.1101/2024.01.08.574731)

sequences and their reported Tm
# procedure details: melting temperature; fluorescence melt of hairpins on a sequencing array, two-state fit, raised by 9.35 °C to match UV melts
# condition set: sodium 0.088 M
Express the result in °C but write the number alone.

{"columns": ["sequence record", "units symbol", "Tm"],
 "data": [
  ["GTTACCGGAAACGATAAC ((((.((....)).))))", "°C", 36.1]
]}

In: Which measured Tm value corresponds to GCATTGGGAAACCAACGC ((.((((....)))).)) ?
Out: 42.2

In: Also GTCGCAACGAAAGTTGAC (((..(((....)))))) , if possible.
Out: 29.4

In: // query: GATCTTTACAAGATC ((((((...))))))
Out: 46.4
